- System: MS2 coat protein
- MEASUREMENT_PROTOCOL: apparent KD of MS2 coat protein; designed switch direction (-1 OFF switch, 1 ON switch): -1; higher = weaker reporter binding
- STATED_CONDITIONS: input ligand: none
# cutoff 80 nM applies to apparent KD of MS2 coat protein; >= gives 1, < gives -1

INSERT INTO assay_data (construct_sequence, class) VALUES
  ('AUAAUUAGUUCAGGAUAUCAGCACGUUUAGUGCUGAGAAGGGAACAUGAGGAUCACCCAUGUGAUCAAUAUUAUAAUUUUAAUU [ENG1/12-B2] (Eterna round: R96, puzzle: Exclusion NG 1)', 1),
  ('UAAUUAAUAAGAUCAAUUAAUUAACAUGAGGAUCACCCAUGUGAGGAUAUCAGCUCGUUUAGAGCUGAGAAGGCACAAUAAUUA [ExNG3/17-C2] (Eterna round: R96, puzzle: Exclusion NG 3)', -1),
  ('CACCGUUACAGAGGAUAUGGUACAUGAGGAUCACCCAUGUAAUAAAUGAGAAUUUCGAAUGUAAUCCAGAAGGCUGGAAUCGGC [Ostricism 74 - Jieux - Exclusion NG 2] (Eterna round: R96, puzzle: Exclusion NG 2)', 1),
  ('CUUUGGUCAGGAUAUGGUGGGCUGGUCGCGCGGCCGGGUGGCCAGAAGGGACAUGAGGAUCACCCAUGUACGGC [excls4-X] (Eterna round: R96, puzzle: Exclusion 4)', 1);

Continue with the next sequence.
Problem: // inclusive: apparent KD of MS2 coat protein at least 80 nM? input: UGCAGACGAGGAUAUGAUUAAUAAUACAUGAGGAUCACCCAUGUAAUACUGAUCUAUGGAUCAGAAGGUGUCUGCA [E5/6-B2] (Eterna round: R97, puzzle: Exclusion 5)
Result: -1

---

Each entry below lists one item and its recorded apparent KD of K4 kissing-loop reporter value.
- Test system: K4 kissing-loop RNA reporter;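 further: bound reporter read as fluorescence of individual clusters on recovered sequencing chips by microscopy, with normalized cluster intensities fitted with a binding model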
- MEASUREMENT_PROTOCOL: apparent KD of K4 kissing-loop reporter; higher = weaker reporter binding
- STATED_CONDITIONS: Eterna round: R107; input ligand: tryptophan 2.4 mM
Write the answer as a number in µM, unit excluded.

INSERT INTO measurements (construct_sequence, value_units, reported) VALUES
  ('UUGUUUGGUUGAGAGGUUGGGCGAGAUGAUACCAGUAGAUAAGAAUACCCUUGGCAGCAUAAGAAAGAUAUAGUGAUGUUGUAUA [SSTheophA.N]', 'µM', 0.478),
  ('CGCGCGCGCGCGCGCGCGCGCGCGCGAAGUGAGGAUAUUUAGGGAGAAAGAAGGCACUAUAAAAUAUAGUGAUGUUAUAUAAGGG [SSFMNA.B]', 'µM', 0.496),
  ('GCCGUAGAUUGAAGGAGCGCCAUCUUACCAAGAGUGAUGUUCUUUGGUACCAUGUACAGCUGGCAGGUAGGUCGCAAUCUACGGC', 'µM', 0.169);

Measured apparent KD of K4 kissing-loop reporter, GAAAGAAAGAAUGAUACCAGACACCCGAGUGAUGUUCGGAGCAGAGUGAUGUUCUUUUAAGUCCCUUGGCAGCAUAAAAGAAAAG [whbob_SS_Theo_B_sa82] : 0.119

Measured apparent KD of K4 kissing-loop reporter, AAAUUUAUAUUAGAUACCAGCAUUUUGAAUGUUUAUUAUGACAAGAGUGAUGUUCUUGUAUGCCCUUGGCAGCUGGUAUGGGUUU [KL-XTheo-B24] : 0.125

Measured apparent KD of K4 kissing-loop reporter, UUCGGCCUGACGGCCGCCACUUUGGGUAGUGAUGUUACCAACAUUCACCAGAUACAGGUUACUUCAAGGACCGGGUCAGACGGUG [theeternabot_exclusion_KL_Trp_B_45] : 0.0928

Measured apparent KD of K4 kissing-loop reporter, UGGUUUAGAAGUGAUGUUUCGAUAAGUGAUACCAGACAAAAGAAAGUCCCUUGGCAGCACAAUGAUGCCAAGGAAACGGCAUGAU [Same State Theophylline A GF 1] : 0.0989

Measured apparent KD of K4 kissing-loop reporter, "GGGAGCAAAGCUCCCGGAUGCUAUUACCAGUAGGAUAUCUGGAAACAGAGAAGGGCUAAGCCAGUGAUGUUGGUUUCGAGCAUCC" : 0.514

Measured apparent KD of K4 kissing-loop reporter, GAUGAUCGCGCGGCCGCCACUGGUCAGUGAUGUUGACAUUAAUGCGCCGAGUAGUAACGGCGCAACAGGACCGGGCGCGAUGUAG [#11 K4 Tryptophan B Same State] : 0.171

Measured apparent KD of K4 kissing-loop reporter, "UGAUAGGACAGAAGGAGCGGUAGUGAUGUUACCAAAAGAAUAAGGUGUCAAAAGACACCCUGCCAGGUAGGUCGCUGUCCUAUCU" : 0.086

Measured apparent KD of K4 kissing-loop reporter, UAAUAAAUUCCAGCGAUAUCGCUCUUCGAAGGAGCGGACGAAAGUCCAGGUAGGUCGCGGAGAGUGAUGUUCUUUGCGGCGCUGG [whbob_Ex_Arginine_A_2t133] : 0.266

Measured apparent KD of K4 kissing-loop reporter, AUAUCUGAUAGCAGUGAUGUUGCUUCAGAUACCAGACGAGAUCAUGUCCCUUGGCAGCUGACACGGCACGUGCUAGGUUAGAUGA [Theo A Ex t2] : 0.101

---

- System: MS2 coat protein
- MEASUREMENT_PROTOCOL: apparent KD of MS2 coat protein, switch OFF state (with FMN for OFF switches, without FMN for ON switches); designed switch direction (-1 OFF switch, 1 ON switch): -1; higher = weaker reporter binding
- STATED_CONDITIONS: FMN input: 0 or 200 uM; Eterna round: R93 (includes R88 designs)
Each entry below lists one item and its recorded apparent KD of MS2 coat protein value.
Write the answer as a number in nM, unit excluded.

See these solved cases before continuing.
INSERT INTO results (construct_sequence, test_readout, value_units, reported) VALUES
  ('GCUUGGCAAGGAUAUACAUGAGGAUCACCCAUGUGAGAGAAAAAAGUGAGAAAGAAAAGUAGAAGGUGCUGAGG [salish99-ex3-109]', 'apparent KD of MS2 coat protein', 'nM', 82.2),
  ('AAAAGACAUGAGGAUCACCCAUGUCAGGAUAUGACUUGAAAAAUAAAAUAAAAACAUGUCAGAAGGGACAUGAA [Design 46: Sub-opt DB]', 'apparent KD of MS2 coat protein', 'nM', 25.2),
  ('UAAAGACAUGAGGAUCACCCAUGUGAGGAUAUCGGUGACUAUAAAAAAAAAUAGUCACCGAGAAGGCACAGAAA [JR_Exc001_Sub301]', 'apparent KD of MS2 coat protein', 'nM', 117);

Measured apparent KD of MS2 coat protein, AAGAAGCAAGGAUAUACAUGAGGAUCACCCAUGUAAAAGAAAGAGGGAAAAGAGAAAAGUAGAAGGUGCAAGAA [Ptolemy VI Philometor] : 54.4

Measured apparent KD of MS2 coat protein, AAAACGAUAGGAUAUACAUGAGGAUCACCCAUGUUAAAAUGUAGAAGGCUGAAAAAAAGUAGAAGGAUCAAAAA [EXC - 3] : 34.4

Measured apparent KD of MS2 coat protein, AAAAAGUCAGGAUAUGUCAAAAGUCACAAAAGUGACAAAAGACAGAAGGGACAUGAGGAUCACCCAUGUGGAAA [Mod of Eli - Late G segment 1] : 134

---

- System: MS2 coat protein
- MEASUREMENT_PROTOCOL: apparent KD of MS2 coat protein, switch OFF state (with FMN for OFF switches, without FMN for ON switches); designed switch direction (-1 OFF switch, 1 ON switch): -1; higher = weaker reporter binding
- STATED_CONDITIONS: FMN input: 0 or 200 uM; Eterna round: R93 (includes R88 designs)
# cutoff 20 nM applies to apparent KD of MS2 coat protein; >= gives condition met, < gives condition not met

Problem: // inclusive: apparent KD of MS2 coat protein at least 20 nM? input: AAAAAACAUGAGGAUCACCCAUGUGAGGAUAUCCAGAAGGGAAUAAAAUAACUCGAAAGGAGAAGGCGCAAAAA [Ex 1 May 34]
Result: condition met

Problem: // inclusive: apparent KD of MS2 coat protein at least 20 nM? input: AAUGGUGCAGGAUAUACAUGAGGAUCACCCAUGUACAUCAGACAUAUGGUCGAAGCAUGUAGAAGGGCACCAAA [Ex 3May 56]
Result: condition met

Problem: // inclusive: apparent KD of MS2 coat protein at least 20 nM? input: AAUAGUGGAGGAUAUACAUGAGGAUCACCCAUGUAGAAAGGAAGUGUAUAUAUGGCGUGUAGAAGGCCAAAUAA [Mai Tai 3 ala Nando]
Result: condition met

Problem: // inclusive: apparent KD of MS2 coat protein at least 20 nM? input: AUGUAGGGAGGAUAUACAUAGAUACAGAUUCGUGUAGAACUACAUGAGGAUCACCCAUGUAGAAGGCCCUAAAA [Mat - Same state - Mayanna Mod - D124]
Result: condition met

Problem: // inclusive: apparent KD of MS2 coat protein at least 20 nM? input: AACAAACAUGAGGAUCACCCAUGUGAGGAUAUACAAACAAACAAAAACAAAACAAAAAGUAGAAGGCACAACAA [JR_Exc001_Sub002]
Result: condition not met

Problem: // inclusive: apparent KD of MS2 coat protein at least 20 nM? input: AAACGUAGAGGAUAUACAUAAGUAUUACGAAAGUAAUACAAACAUGAGGAUCACCCAUGUAGAAGGCUACGAAA [MOD2 of Meechl's MS2 Ex2 (MS2 riboswitches - Exlclusion 2)]
Result: condition met

Problem: // inclusive: apparent KD of MS2 coat protein at least 20 nM? input: AGCUAGUCAGGAUAUACGAACAUGUCAAAAGACGUGAGAGAACAUGAGGAUCACCCAUGUAGAAGGGACUAGCA [Mat - Exclusion 2 - JL-Eli mod - D47]
Result: condition not met

Problem: // inclusive: apparent KD of MS2 coat protein at least 20 nM? input: AAGGAUCGAGGAUAUACAUAGAUACAGAUACAUGUAGAACUACAUGAGGAUCACCCAUGUAGAAGGCGAUCAUA [AJ 30]
Result: condition met

Problem: // inclusive: apparent KD of MS2 coat protein at least 20 nM? input: AAAGAUGGAGGAUAUACAUGAGGAUCACCCAUGUGGAAAAAAAAUUGGGAAAAAGAAAGUAGAAGGCCAAAAAA [Ex 3 May 42]
Result: condition met

Problem: // inclusive: apparent KD of MS2 coat protein at least 20 nM? input: AACGUACAUGAGGAUCACCCAUGUUAGGAUAUAUAUACAGGAAAACAUUCUAAUGUAAAUAGAAGGAACGAAAA [Bilbo Confounded 21 - Jieux - Exclusion 1]
Result: condition not met
